test system: 2Sb-muMax20 (muMax20 with two 1,3-bis(methyl)benzene Cys staples, A13C/A17C and Q88C/A92C, C-terminal Lys); test: PBM 8-mer E-score (E-score (rank enrichment, -0.5 to 0.5)); higher = stronger preferential binding
In all, about 33,000 sequences were measured (“E-score (rank enrichment, -0.5 to 0.5)”: median about -0.0028, highest 2% from about 0.23 on). What follows is part of a selection rich in the highest values, with near analogues and random picks from the rest.
Please map values of PBM 8-mer E-score to classes as shown: low group = under -0.05, middle group = from -0.05 up to 0.1, high group = 0.1 and over

>>> df
    input_sequence         group
 0        AGTAACCC  middle group
 1        CCAAGCAA  middle group
 2        ATTCATAC    high group
 3        CAAATTCG  middle group
 4        AGTCATTC    high group
 5        ACTACACA    high group
 6        GCCTAACA  middle group
 7        AGACCTAG     low group
 8        AGCCCCGG     low group
 9        GAATAACA    high group
10        ATACATTG    high group
11        AGCAGCGA     low group
12        ATACTGCG  middle group
13        ATACATTC    high group
14        GAAGGGGA     low group
15        ACAGTGAT    high group
16        CGATGGTA     low group
